Before we begin, note that these log10 of IC50 values for Lanosterol synthase (Homo sapiens, UniProt P48449) originate from several publications.
The common logarithm of IC50 in nM is what is listed.

The cases that follow already have their log10 of IC50 on record.
log10 of IC50 in this record for `CN(C[C@H]1C[C@@H]1COc1ccc(C(=O)c2ccc(Br)cc2)cc1)C1CC1` : 1.34

log10 of IC50 in this record for `CN(C[C@H]1C[C@@H]1COc1ccc(C(=O)c2ccc(Br)cc2)c(F)c1)C1CC1` : 2.64

For each listed entry, give its log10 of IC50.
1. O=S(=O)(c1ccc(Cl)cc1)N1CCN(Cc2cccc(-c3ccncc3)c2)CC1
2. CCCCCCOC/C=C(\C)CC/C=C(\C)CCCN(C)C

2.70
2.93

For each listed entry, give its log10 of IC50.
1. C=CCN(C)Cc1ccc(-c2ccc(C(=O)c3ccc(Br)cc3)cc2)cc1.Cl
2. C=CCN(C)CCCCCCOc1ccc(C(=O)c2ccc(Br)cc2)cc1
3. C=CCN(C)CCCCCCOc1ccc2c(c1)CON=C2c1ccc(Br)cc1
4. O=C(c1ccc(Cl)cc1)N1CCN(Cc2ccc(-c3ccncc3)cc2)CC1
5. CCN(CCO)CCCCC[C@H]1CC[C@H](N(C)S(=O)(=O)c2ccc(C(F)(F)F)cc2)CC1
6. C=CCN(C)C/C=C/COc1ccc2c(-c3ccc(Br)cc3)coc2c1

[0.90, 0.73, 0.61, 0.48, 2.65, 2.70]

For each listed entry, give its log10 of IC50.
1. O=S(=O)(NCCc1ccc(-c2ccc(CN3CCCC3)cc2)cc1)c1ccc(Cl)cc1
2. C=CCN(C)C/C=C/COc1ccc2c(-c3ccc(Br)cc3)noc2c1
3. C=CCN(C)CCCCC[C@H]1CC[C@H](N(C)S(=O)(=O)c2ccc(C(F)(F)F)cc2)CC1
4. C=CCN(C)CCCCCCOc1ccc2c(-c3ccc(Br)cc3)nccc2c1

1.80
1.46
2.00
0.54

For each listed entry, give its log10 of IC50.
1. C/C(=C\COCCCc1ccccc1)CC/C=C(\C)CCCN(C)C
2. C=CCN(C)CCCCCCOc1ccc2c(c1)c(C)nn2C
3. C=CCN(C)CCCCCCOc1ccc(-c2nsc3cc(Br)ccc23)cc1
4. C=CCN(C[C@H]1C[C@@H]1COc1ccc(C(=O)c2ccc(Br)cc2)cc1)C1CC1
5. CN(C)Cc1ccc(N2CCC(N(C)S(=O)(=O)c3ccc(Cl)cc3)CC2)cc1

[3.04, 1.29, 4.31, 0.81, 2.36]
